- Test system: zebrafish embryos
- measurementProtocol: Manually assessed pericardial edema in treated zebrafish
- Type: in vivo
- conditions: number of fish, 20 µM, Tg(myl7:eGFP)
Where a name gives a salt, the structure may show the parent alone.
Each entry below carries its recorded Edema: Mild.
measurementName: Edema: Mild

{"compound": "CN(C)CCN(Cc1cccs1)c1ccccn1 [Methapyrilene HCl, methapyrilene HCl]", "numericValue": 1}
{"compound": "N=C(N)c1ccc(OCCCCCOc2ccc(C(=N)N)cc2)cc1 [Pentamidine isethionate]", "numericValue": 4}
{"compound": "CNCC[C@@H](Oc1cccc2ccccc12)c1cccs1 [(R)-Duloxetine HCl]", "numericValue": 1}
{"compound": "OCCN1CCN(CCCN2c3ccccc3C=Cc3ccccc32)CC1 [Opipramol diHCl]", "numericValue": 5}
{"compound": "Cc1cc(/C=C/c2ccc3cc(N(C)C)ccc3[n+]2C)c(C)n1-c1ccccc1 [Pyrvinium pamoate]", "numericValue": 1}
{"compound": "C=CCOC(Cn1ccnc1)c1ccc(Cl)cc1Cl (centres unmarked) [Enilconazole, enilconazole]", "numericValue": 2}
{"compound": "CC(=O)[C@H]1CC[C@H]2[C@@H]3CC=C4C[C@@H](O)CC[C@]4(C)[C@H]3CC[C@]12C [Pregnenolone]", "numericValue": 1}
{"compound": "Oc1ccc(OCc2ccccc2)cc1 [Monobenzone]", "numericValue": 3}

* * *

Each entry below carries its recorded Edema: Moderate.
- System: zebrafish embryos
- measurementProtocol: Manually assessed pericardial edema in treated zebrafish
- Type: in vivo
- conditions: number of fish, 20 µM, Tg(myl7:eGFP)
Counter-ions that a name gives are not always drawn.
measurementName: Edema: Moderate

{"compound": "CC(C)c1c(C(=O)Nc2ccccc2)c(-c2ccccc2)c(-c2ccc(F)cc2)n1CC[C@@H](O)C[C@@H](O)CC(=O)O", "numericValue": 1}
{"compound": "CN(C)CCCOc1nn(Cc2ccccc2)c2ccccc12 [Benzydamine HCl]", "numericValue": 0}
{"compound": "C=CCOC(Cn1ccnc1)c1ccc(Cl)cc1Cl (stereo not drawn)", "numericValue": 0}
{"compound": "OCCN1CCN(CCCN2c3ccccc3C=Cc3ccccc32)CC1 [Opipramol diHCl]", "numericValue": 0}
{"compound": "CC(=O)[C@H]1CC[C@H]2[C@@H]3CC=C4C[C@@H](O)CC[C@]4(C)[C@H]3CC[C@]12C", "numericValue": 3}
{"compound": "CCC(Cc1c(I)cc(I)c(N)c1I)C(=O)O (stereo not drawn)", "numericValue": 1}

* * *

- System: Tg(myl7:eGFP)^twu34/+ zebrafish embryos
- measurementProtocol: Chamber-specific quantitative heart phenotyping with pyHeart4Fish;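 further: embryos exposed 24 h from 24 hpf in 0.2% DMSO egg water, tricaine-anaesthetised, heartbeat videos imaged at 470 nm and hearts analysed chamber by chamber from pixel-intensity beat curves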
- conditions: number of fish, 20 µM
Where a name gives a salt, the structure may show the parent alone.

{"molecule": "CN(C)CCN(Cc1ccc(Cl)cc1)c1ccccn1 [Chloropyramine HCl, chloropyramine HCl]", "Conduction defect": 2}
{"molecule": "Oc1ccc(OCc2ccccc2)cc1 [Monobenzone]", "Conduction defect": 0}
{"molecule": "CC(=O)[C@H]1CC[C@H]2[C@@H]3CC=C4C[C@@H](O)CC[C@]4(C)[C@H]3CC[C@]12C [Pregnenolone]", "Conduction defect": 1}
{"molecule": "OCCN1CCN(CCCN2c3ccccc3C=Cc3ccccc32)CC1 [Opipramol diHCl]", "Conduction defect": 0}
{"molecule": "CC(C)c1c(C(=O)Nc2ccccc2)c(-c2ccccc2)c(-c2ccc(F)cc2)n1CC[C@@H](O)C[C@@H](O)CC(=O)O [Atorvastatin, atorvastatin]", "Conduction defect": 0}
{"molecule": "CN(C)CCCOc1nn(Cc2ccccc2)c2ccccc12 [Benzydamine HCl]", "Conduction defect": 0}
{"molecule": "CN(C)CCN(Cc1cccs1)c1ccccn1 [Methapyrilene HCl, methapyrilene HCl]", "Conduction defect": 2}
{"molecule": "Cc1cc(/C=C/c2ccc3cc(N(C)C)ccc3[n+]2C)c(C)n1-c1ccccc1 [Pyrvinium pamoate]", "Conduction defect": 0}
{"molecule": "C[C@@H]1C[C@@H]([C@H](O)CC2CC(=O)NC(=O)C2)C(=O)[C@@H](C)C1 [Cycloheximide]", "Conduction defect": 0}
{"molecule": "CCC(Cc1c(I)cc(I)c(N)c1I)C(=O)O (centres unmarked) [Iopanoic acid]", "Conduction defect": 0}
{"molecule": "CN(C)CCN(Cc1ccccc1)c1ccccn1 [Tripelennamine HCl, tripelennamine HCl]", "Conduction defect": 0}
{"molecule": "CNCC[C@@H](Oc1cccc2ccccc12)c1cccs1 [(R)-Duloxetine HCl]", "Conduction defect": 2}
{"molecule": "C=CCOC(Cn1ccnc1)c1ccc(Cl)cc1Cl (centres unmarked) [Enilconazole, enilconazole]", "Conduction defect": 0}
{"molecule": "N=C(N)c1ccc(OCCCCCOc2ccc(C(=N)N)cc2)cc1 [Pentamidine isethionate]", "Conduction defect": 0}
